Target: RXR:PPARγ (Homo sapiens)
Construct: host or cells: CV-1
Assay: RXR:PPARγ synergy with BRL49653 in CV-1 cells
Format: cell-based
Conditions: maximal response in presence of 100 nM BRL49653 (RXR:PPARγ) relative to maximal response of BRL49653 alone
measurement.type: PPARγ CV-1 (%) Synergy

Example cases with answers are listed next.
CCCOc1c(-c2cccc3sc(/C(C)=C/C(=O)O)cc23)cc(C(C)C)cc1C(C)C [Ex. 15] ... 109
CCCCOc1c(-c2c(F)ccc3sc(/C(C)=C/C(=O)O)cc23)cc(C(C)C)cc1C(C)C [Ex. 18] ... 40

[1] C/C(=C\C(=O)O)c1cc2c(-c3cc(C(C)(C)C)cc(C(C)(C)C)c3OCC(F)F)cccc2s1 [Ex. 14]
[2] CCOc1c(-c2cccc3cc(/C(C)=C/C(=O)O)oc23)cc(C(C)C)cc1C(C)C [Ex. 5]
[ask] // returns 1 or 2 , whichever has the lower PPARγ CV-1 (%) Synergy Your choice should be expressed through its label.
[reply] 1

----------
Target: RXR:RXR (Homo sapiens, UniProt P19793)
Construct: host or cells: CV-1
Sequence (P19793 1-462): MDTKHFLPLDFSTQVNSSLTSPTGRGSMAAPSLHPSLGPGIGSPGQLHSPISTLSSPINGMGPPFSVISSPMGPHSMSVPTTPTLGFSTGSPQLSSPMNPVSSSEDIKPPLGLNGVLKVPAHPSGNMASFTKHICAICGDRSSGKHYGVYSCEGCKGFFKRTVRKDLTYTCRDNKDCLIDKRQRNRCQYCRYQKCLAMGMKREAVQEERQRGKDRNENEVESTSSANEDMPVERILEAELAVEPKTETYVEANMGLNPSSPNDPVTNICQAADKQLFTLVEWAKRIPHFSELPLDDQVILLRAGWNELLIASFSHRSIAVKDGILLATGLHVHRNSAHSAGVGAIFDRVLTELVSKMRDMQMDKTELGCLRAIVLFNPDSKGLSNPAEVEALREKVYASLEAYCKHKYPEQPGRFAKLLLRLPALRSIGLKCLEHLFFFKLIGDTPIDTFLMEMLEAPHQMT
Assay: RXR:RXR agonist/antagonist efficacy in CV-1 cells
Format: cell-based
Conditions: maximal repression (100%) in the presence of 32 nM LGD1069
measurement.type: RXR:RXR CV-1 (%) Antag

Example cases with answers are listed next.
C/C(=C\C(=O)O)c1cc2c(-c3cc(C(C)(C)C)cc(C(C)(C)C)c3OCC(F)F)cccc2s1 ... 79
CCCOc1c(-c2cccc3sc(/C(C)=C/C(=O)O)cc23)cc(C(C)C)cc1C(C)C ... 81

[P] CCCCOc1c(-c2c(F)ccc3sc(/C(C)=C/C(=O)O)cc23)cc(C(C)C)cc1C(C)C
[Q] CCOc1c(-c2cccc3cc(/C(C)=C/C(=O)O)oc23)cc(C(C)C)cc1C(C)C
[ask] Compare P and Q by numeric RXR:RXR CV-1 (%) Antag and name the larger one. Your choice should be expressed through its label.
[reply] P
(P: 86%, Q: 10%)

----------
List of db/db mouse Glu. (D 7) values.
System: db/db mouse
Test: db/db mouse plasma glucose and triglycerides, oral gavage
Type: in vivo
Conditions: plasma glucose as a % correction relative to lean values on day 7 of treatment with 30 mg/kg/day
Report the figure in % without appending any unit label.

Example cases with answers are listed next.
Cc1cc2c(cc1C1(c3ccc(C(=O)O)cn3)CC1)C(C)(C)CCC2(C)C [LG100268] ... 73
CCOc1c(-c2cccc3cc(/C(C)=C/C(=O)O)oc23)cc(C(C)C)cc1C(C)C [Ex. 5] ... 17
C/C(=C\C(=O)O)c1cc2c(-c3cc(C(C)(C)C)cc(C(C)(C)C)c3OCC(F)F)cccc2s1 [Ex. 14] ... 35
CCCOc1c(-c2cccc3sc(/C(C)=C/C(=O)O)cc23)cc(C(C)C)cc1C(C)C [Ex. 15] ... 20

Query compound follows.
Record summary for CCCCOc1c(-c2c(F)ccc3sc(/C(C)=C/C(=O)O)cc23)cc(C(C)C)cc1C(C)C [Ex. 18] : reported db/db mouse Glu. (D 7) = 38

----------
Target: RXR:RAR (Homo sapiens)
Construct: host or cells: CV-1
Assay: RXR:RAR agonist efficacy in CV-1 cells
Assay type: cell-based
Details: maximal response relative to maximal response of ATRA; CV-1
measurement.type: RXR:RAR CV-1 (%) Ag.

CCCOc1c(-c2cccc3sc(/C(C)=C/C(=O)O)cc23)cc(C(C)C)cc1C(C)C ... 6
CCOc1c(-c2cccc3cc(/C(C)=C/C(=O)O)oc23)cc(C(C)C)cc1C(C)C ... 3

[a] CCCCOc1c(-c2c(F)ccc3sc(/C(C)=C/C(=O)O)cc23)cc(C(C)C)cc1C(C)C
[b] C/C(=C\C(=O)O)c1cc2c(-c3cc(C(C)(C)C)cc(C(C)(C)C)c3OCC(F)F)cccc2s1
[ask] // returns a or b , whichever has the lower RXR:RAR CV-1 (%) Ag. Your choice should be expressed through its label.
[reply] b

----------
Target: RXR:RXR (Homo sapiens, UniProt P19793)
Construct: host or cells: CV-1
Experiment: RXR:RXR agonist/antagonist efficacy in CV-1 cells
Assay type: cell-based
Conditions: maximal response relative to maximal response of ATRA
measurement.type: RXR:RXR CV-1 (%) Ag

CCCOc1c(-c2cccc3sc(/C(C)=C/C(=O)O)cc23)cc(C(C)C)cc1C(C)C ... 4
C/C(=C\C(=O)O)c1cc2c(-c3cc(C(C)(C)C)cc(C(C)(C)C)c3OCC(F)F)cccc2s1 ... 1

[a] CCOc1c(-c2cccc3cc(/C(C)=C/C(=O)O)oc23)cc(C(C)C)cc1C(C)C
[b] CCCCOc1c(-c2c(F)ccc3sc(/C(C)=C/C(=O)O)cc23)cc(C(C)C)cc1C(C)C
[ask] // returns a or b , whichever has the lower RXR:RXR CV-1 (%) Ag Your choice should be expressed through its label.
[reply] b

----------
measurement.type: melting point (°C)

CCCCOc1c(-c2ccnc3ccc(/C(C)=C/C(=O)O)cc23)cc(C(C)C)cc1C(C)C [Example 54] ... 195.3
CCCCOc1c(-c2nccc3ccc(/C(C)=C/C(=O)O)cc23)cc(C(C)C)cc1C(C)C [Example 53] ... 149.8

----------
List of pKi values.
Sequence of the target: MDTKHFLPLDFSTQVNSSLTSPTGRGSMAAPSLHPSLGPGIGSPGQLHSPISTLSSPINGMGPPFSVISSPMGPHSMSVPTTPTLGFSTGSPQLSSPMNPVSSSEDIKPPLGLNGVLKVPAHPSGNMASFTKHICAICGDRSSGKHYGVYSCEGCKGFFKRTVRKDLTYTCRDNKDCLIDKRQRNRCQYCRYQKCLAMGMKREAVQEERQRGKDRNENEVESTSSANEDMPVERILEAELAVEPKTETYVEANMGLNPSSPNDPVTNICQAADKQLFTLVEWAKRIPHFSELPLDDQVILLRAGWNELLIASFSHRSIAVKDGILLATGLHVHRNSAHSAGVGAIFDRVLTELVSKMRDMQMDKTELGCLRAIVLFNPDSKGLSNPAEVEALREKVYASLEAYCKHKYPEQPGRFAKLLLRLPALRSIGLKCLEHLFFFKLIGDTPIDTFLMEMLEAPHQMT
Note on pKi: it is the negative log10 of concentration, concentration in mol/L.

C/C(=C\C(=O)O)c1cc2c(-c3cc(C(C)(C)C)cc(C(C)(C)C)c3OCC(F)F)cccc2s1 ... 7.92

Query molecule follows.
Record summary for CCCOc1c(-c2cccc3sc(/C(C)=C/C(=O)O)cc23)cc(C(C)C)cc1C(C)C : reported pKi = 7.85

----------
Tested on: db/db mouse
Experiment: db/db mouse plasma glucose and triglycerides, oral gavage
Type: in vivo
Conditions: plasma triglycerides as a % of control values on day 3 of treatment with 30 mg/kg/day
measurement.type: db/db mouse Trigs. (D 3) (%)

CCCCOc1c(-c2c(F)ccc3sc(/C(C)=C/C(=O)O)cc23)cc(C(C)C)cc1C(C)C ... 105
CCOc1c(-c2cccc3cc(/C(C)=C/C(=O)O)oc23)cc(C(C)C)cc1C(C)C ... 104
CCCOc1c(-c2cccc3sc(/C(C)=C/C(=O)O)cc23)cc(C(C)C)cc1C(C)C ... 98
C/C(=C\C(=O)O)c1cc2c(-c3cc(C(C)(C)C)cc(C(C)(C)C)c3OCC(F)F)cccc2s1 ... 139
Cc1cc2c(cc1C1(c3ccc(C(=O)O)cn3)CC1)C(C)(C)CCC2(C)C ... 195

----------
List of melting point values.

CCCOc1c(-c2c[nH]c3ccc(/C(C)=C/C(=O)O)cc23)cc(C(C)(C)C)cc1C(C)(C)C [Example 63] ... 105 to 115 °C
C/C(=C\C(=O)O)c1ccc2[nH]cc(-c3cc(C(C)(C)C)cc(C(C)(C)C)c3OCC(F)(F)F)c2c1 [Example 65] ... 146 to 153 °C

Query compound follows.
Record summary for C/C(=C\C(=O)O)c1ccc2[nH]cc(-c3cc(C(C)(C)C)cc(C(C)(C)C)c3OCC(F)F)c2c1 [Example 64] : reported melting point = 135 to 145 °C
